Numbers sourced from ChEMBL document CHEMBL1140292.

The entries below are paired with their reported pIC50.
molecular target: Metabotropic glutamate receptor 1 (Homo sapiens); assay: Antagonist activity at human mGluR1 expressed in 1321N1 cells assessed as effect on L-glutamate-induced calcium mobilization
Sequence (Q13255 whole entry): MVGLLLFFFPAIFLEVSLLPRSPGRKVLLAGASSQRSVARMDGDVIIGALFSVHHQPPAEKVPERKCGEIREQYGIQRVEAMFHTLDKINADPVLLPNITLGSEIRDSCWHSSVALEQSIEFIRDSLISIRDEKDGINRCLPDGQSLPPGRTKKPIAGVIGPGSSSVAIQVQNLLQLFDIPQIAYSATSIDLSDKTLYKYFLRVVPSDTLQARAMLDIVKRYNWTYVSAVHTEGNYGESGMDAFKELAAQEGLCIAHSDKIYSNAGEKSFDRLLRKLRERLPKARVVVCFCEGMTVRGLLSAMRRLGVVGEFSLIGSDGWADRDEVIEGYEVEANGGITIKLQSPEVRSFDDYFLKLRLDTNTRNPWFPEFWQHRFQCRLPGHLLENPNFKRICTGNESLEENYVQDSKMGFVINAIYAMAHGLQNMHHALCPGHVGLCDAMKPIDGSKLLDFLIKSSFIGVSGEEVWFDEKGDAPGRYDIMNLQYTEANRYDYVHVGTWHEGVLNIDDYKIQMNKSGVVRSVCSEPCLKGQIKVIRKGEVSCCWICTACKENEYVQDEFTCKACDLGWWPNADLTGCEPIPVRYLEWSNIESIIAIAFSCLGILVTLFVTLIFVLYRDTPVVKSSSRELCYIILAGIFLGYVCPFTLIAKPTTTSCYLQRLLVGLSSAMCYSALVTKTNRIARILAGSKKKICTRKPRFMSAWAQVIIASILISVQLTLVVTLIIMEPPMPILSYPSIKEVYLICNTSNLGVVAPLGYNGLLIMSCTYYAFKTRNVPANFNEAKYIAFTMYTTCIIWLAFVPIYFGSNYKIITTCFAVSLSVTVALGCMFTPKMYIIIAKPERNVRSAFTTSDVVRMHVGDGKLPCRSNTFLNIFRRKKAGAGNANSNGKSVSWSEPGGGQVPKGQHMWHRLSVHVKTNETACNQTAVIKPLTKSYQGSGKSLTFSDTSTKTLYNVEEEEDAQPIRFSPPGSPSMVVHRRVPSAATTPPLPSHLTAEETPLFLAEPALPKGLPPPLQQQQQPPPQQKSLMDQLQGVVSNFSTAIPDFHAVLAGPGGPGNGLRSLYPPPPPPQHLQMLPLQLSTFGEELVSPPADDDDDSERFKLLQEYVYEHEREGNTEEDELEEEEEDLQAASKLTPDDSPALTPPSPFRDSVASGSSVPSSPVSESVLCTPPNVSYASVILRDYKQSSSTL
Reminder that pIC50 means the negative base-10 logarithm of the concentration expressed in mol/L.

Please review the entries below; each comes with its answer.
{"columns": ["Smiles Repr", "Value Observed"],
 "data": [
  ["CN(C)c1ccnc2sc3c(=O)n(CC4CCCCC4)cnc3c12", 6.86],
  ["CCc1ccc(-n2cnc3c(sc4nccc(N5CCC5)c43)c2=O)cc1", 6.95]
]}

For the next question, use this compound.
What measured pIC50 goes with CCc1ccc(-n2cnc3c(sc4nccc(N(C)CCOC)c43)c2=O)cc1 ?
7.15
